Target: ACVR2B, Q13705
Sequence (Q13705 whole entry, looked up): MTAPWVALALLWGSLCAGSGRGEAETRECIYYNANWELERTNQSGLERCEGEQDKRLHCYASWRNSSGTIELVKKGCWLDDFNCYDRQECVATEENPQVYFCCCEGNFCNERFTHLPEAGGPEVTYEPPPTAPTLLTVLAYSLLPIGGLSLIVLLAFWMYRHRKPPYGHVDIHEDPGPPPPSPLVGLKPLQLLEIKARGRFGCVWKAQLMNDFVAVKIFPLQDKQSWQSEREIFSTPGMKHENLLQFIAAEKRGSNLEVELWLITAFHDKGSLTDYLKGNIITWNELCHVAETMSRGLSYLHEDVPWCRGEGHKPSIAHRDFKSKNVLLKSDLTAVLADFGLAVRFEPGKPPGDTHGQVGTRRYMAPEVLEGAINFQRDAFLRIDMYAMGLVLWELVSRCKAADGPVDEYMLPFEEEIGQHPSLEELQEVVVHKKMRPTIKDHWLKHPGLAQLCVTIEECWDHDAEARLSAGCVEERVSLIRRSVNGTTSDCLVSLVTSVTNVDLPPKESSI
Assay: Kd (SPR)
Quantity name: pKd
// pKd here means minus log10 of the molar concentration (mol/L)

Example results:
- unnamed (protein) chain 1: QVQLVQSGAEVKKPGASVKVSCKASGYTFTSSYINWVRQAPGQGLEWMGTINPVSGSTSYAQKFQGRVTMTRDTSISTAYMELSRLRSDDTAVYYCARGGYVDYWGQGTLVTVSS chain 2: QSALTQPASVSGSPGQSITISCTGTSSDVGSYNYVNWYQQHPGKAPKLMIYGVSKRPSGVSNRFSGSKSGNTASLTISGLQAEDEADYYCGTFAGGSYYGVFGGGTKLTVL: 6.82
- unnamed (protein) chain 1: QVQLVQSGAEVKKPGASVKVSCKASGYTFTSSGINWVRQAPGQGLEWMGTINPVTGNTSYAQKFQGRVTMTRDTSISTAYMELSRLRSDDTAVYYCARGNYMDYWGQGTLVTVSS chain 2: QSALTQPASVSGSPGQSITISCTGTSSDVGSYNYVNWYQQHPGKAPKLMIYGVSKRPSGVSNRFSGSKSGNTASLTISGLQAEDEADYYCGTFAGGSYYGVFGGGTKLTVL: 9.24
- unnamed (protein) chain 1: QVQLVQSGAEVKKPGASVKVSCKASGYTFTSSYINWVRQAPGQGLEWMGTINPVSGSTSYAQKFQGRVTMTRDTSISTAYMELSRLRSDDTAVYYCARSGYADYWGQGTLVTVSS chain 2: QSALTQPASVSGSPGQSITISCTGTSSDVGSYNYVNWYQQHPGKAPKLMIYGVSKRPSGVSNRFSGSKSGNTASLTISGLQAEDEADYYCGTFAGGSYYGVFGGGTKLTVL: 7.38

// moving on: another record for pKd
unnamed (protein) chain 1: QVQLVQSGAEVKKPGASVKVSCKASGYTFTSSYINWVRQAPGQGLEWMGTINPVSGSTSYAQKFQGRVTMTRDTSISTAYMELSRLRSDDTAVYYCARGGEFDYWGQGTLVTVSS chain 2: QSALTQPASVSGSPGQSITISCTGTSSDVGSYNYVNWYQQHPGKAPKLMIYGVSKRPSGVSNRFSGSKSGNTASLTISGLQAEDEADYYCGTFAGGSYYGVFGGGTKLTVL yielded pKd of 6.15

Ref: the FLAb antibody collection (doi:10.1101/2023.12.08.570889)
